system: A. baumannii ATCC 19606; assay: Broth microdilution MIC in iron-depleted CAMHB (IDM); assay type: cell-based; settings: Acinetobacter baumannii, ATCC19606, read-out: Minimum Inhibitory Concentration, ATCC 19606
measured-metric: MIC

Recorded result, NCCCN1CCN(C(=O)N[C@@H](C(=O)N[C@H]2Cc3cc(Cl)c(F)c(C(=O)O)c3OB2O)c2c(F)cc(O)c(O)c2Cl)C(=O)C1=O , MIC: > 128 µg/mL

Recorded result, CS(=O)(=O)N1CCN(C(=O)N[C@@H](C(=O)N[C@H]2Cc3ccc(F)c(C(=O)O)c3OB2O)c2cc(F)c(O)c(O)c2Cl)C1=O (single isomer, unassigned) , MIC: 0.5 to 1 µg/mL

Recorded result, NC1(CN2CCN(C(=O)N[C@@H](C(=O)N[C@H]3Cc4ccc(F)c(C(=O)O)c4OB3O)c3c(F)cc(O)c(O)c3Cl)C(=O)C2=O)CC1 (single isomer, unassigned) , MIC: 0.5 to 1 µg/mL

Recorded result, O=C(Nc1ccc(O)c(O)c1Cl)NC(C(=O)N[C@H]1Cc2ccc(F)c(C(=O)O)c2OB1O)c1ncc(O)cc1F (some centres unmarked) , MIC: 32 to 64 µg/mL

Recorded result, CCN1CCN(C(=O)NC(C(=O)N[C@H]2Cc3cccc(C(=O)O)c3OB2O)c2ccc(O)c(NC(=O)c3ccc(O)c(O)c3Cl)c2)C(=O)C1=O (some centres unmarked) , MIC: 32 to 64 µg/mL

----------
Target: N. gonorrhoeae PBP2 (Neisseria gonorrhoeae, UniProt P08149)
Construct: made in house
Sequence (P08149 whole entry): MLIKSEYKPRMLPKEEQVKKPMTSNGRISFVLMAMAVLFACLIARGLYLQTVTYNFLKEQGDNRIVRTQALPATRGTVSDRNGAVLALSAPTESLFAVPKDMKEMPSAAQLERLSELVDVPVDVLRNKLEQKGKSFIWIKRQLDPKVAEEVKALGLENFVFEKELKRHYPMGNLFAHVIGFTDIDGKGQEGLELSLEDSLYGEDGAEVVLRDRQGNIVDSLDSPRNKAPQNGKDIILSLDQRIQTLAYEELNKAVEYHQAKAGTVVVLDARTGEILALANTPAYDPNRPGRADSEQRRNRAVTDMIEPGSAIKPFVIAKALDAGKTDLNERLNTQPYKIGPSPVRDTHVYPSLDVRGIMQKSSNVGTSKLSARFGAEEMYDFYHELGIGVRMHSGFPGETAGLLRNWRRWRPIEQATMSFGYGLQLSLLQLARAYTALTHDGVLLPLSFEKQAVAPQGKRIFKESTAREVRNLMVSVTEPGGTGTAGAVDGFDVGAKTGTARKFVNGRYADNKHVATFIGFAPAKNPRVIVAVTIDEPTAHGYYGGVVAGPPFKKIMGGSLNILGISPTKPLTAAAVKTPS
Assay: Bocillin-FL fluorescence polarization competition binding assay, N. gonorrhoeae PBP2
Details: fluorescence polarization competition binding assay using Bocillin-FL; read-out: N. gonorrhoeae PBP2 Potency
Source text: Example I: Experimental Method for Penicillin-Binding Protein Binding Assays with Bocillin-FL Via Fluorescence Polarization […]
Assignment: determine reported EC50 for the given molecules.

Recorded result, NCCN1CCN(C(=O)N[C@@H](C(=O)N[C@H]2Cc3cccc(C(=O)O)c3OB2O)c2ccc(O)c([N+](=O)[O-])c2)C(=O)C1=O (single isomer, unassigned) [Example 199] , EC50: 10 to 30 µM

Recorded result, CCN1CCN(C(=O)N[C@@H](C(=O)N[C@H]2Cc3cccc(C(=O)O)c3OB2O)c2ccc(C(=O)O)c(F)c2)C(=O)C1=O (single isomer, unassigned) [Example 146] , EC50: < 10 µM

Recorded result, CCN1CCN(C(=O)NC(C(=O)N[C@H]2Cc3cccc(C(=O)O)c3OB2O)c2c(F)cc(NC(C)=O)cc2F)C(=O)C1=O (stereo partly drawn) [Example 188] , EC50: < 10 µM

Recorded result, CCN1CCN(C(=O)N[C@@H](C(=O)N[C@H]2Cc3cccc(C(=O)O)c3OB2O)c2ccc(C(=O)O)cc2)C(=O)C1=O (single isomer, unassigned) [Example 124] , EC50: < 10 µM

Recorded result, CCN1CCN(C(=O)NC(C(=O)N[C@H]2Cc3cccc(C(=O)O)c3OB2O)c2cc([N+](=O)[O-])c(O)cc2F)C(=O)C1=O (stereo partly drawn) [Example 184] , EC50: < 10 µM

Recorded result, CCN1CCN(C(=O)N[C@H](C(=O)N[C@H]2Cc3cccc(C(=O)O)c3OB2O)c2ccc(C(=O)O)c(F)c2Cl)C(=O)C1=O (single isomer, unassigned) [Example 202] , EC50: > 100 µM

Recorded result, CCN1CCN(C(=O)NC(C(=O)N[C@H]2Cc3cccc(C(=O)O)c3OB2O)c2cccc(N)c2)C(=O)C1=O (stereo partly drawn) [Example 72] , EC50: < 10 µM

Recorded result, CCN1CCN(C(=O)NC(C(=O)N[C@H]2Cc3cccc(C(=O)O)c3OB2O)c2c(F)c(F)c(O)c(F)c2F)C(=O)C1=O (stereo partly drawn) [Example 175] , EC50: < 10 µM

Recorded result, C[C@@H](O)[C@@H](NC(=O)N1CCN(CCNC(=O)c2c(F)cc(O)c(O)c2Cl)C(=O)C1=O)C(=O)N[C@H]1Cc2ccc(F)c(C(=O)O)c2OB1O [Example 102] , EC50: 10 to 30 µM

Recorded result, NCCN1CCN(C(=O)N[C@@H](C(=O)N[C@H]2Cc3cccc(C(=O)O)c3OB2O)c2ccc(O)c(Cl)c2F)C(=O)C1=O (single isomer, unassigned) [Example 186] , EC50: < 10 µM

Recorded result, NCCN1CCN(C(=O)NC(C(=O)N[C@H]2Cc3cccc(C(=O)O)c3OB2O)c2c(F)c(F)c(O)c(F)c2F)C(=O)C1=O (stereo partly drawn) [Example 174] , EC50: < 10 µM

Recorded result, CCN1CCN(C(=O)NC(C(=O)N[C@H]2Cc3cccc(C(=O)O)c3OB2O)c2ccc(C(=O)O)c(F)c2)C(=O)C1=O (stereo partly drawn) [Example 31] , EC50: < 10 µM

----------
Assignment: determine reported MIC for the given molecules.
test system: N. gonorrhoeae ATCC 49226; assay: Liquid broth MIC in Fastidious broth; type: cell-based; settings: Neisseria gonorrhoeae, ATCC49226; N. gonorrhoeae ATCC 49226; Fastidious broth; read-out: Minimum Inhibitory Concentration, ATCC 49226

Recorded result, NCCN1CCN(C(=O)N[C@H](C(=O)N[C@H]2Cc3cccc(C(=O)O)c3OB2O)c2c(F)cccc2F)C(=O)C1=O (single isomer, unassigned) , MIC: > 64 µg/mL

Recorded result, CS(=O)(=O)N1CCN(C(=O)NC(C(=O)N[C@H]2Cc3ccc(F)c(C(=O)O)c3OB2O)c2c(Cl)cc(O)c(O)c2F)C1=O (stereo partly shown) , MIC: > 64 µg/mL

Recorded result, CCN1CCN(C(=O)N[C@H](C(=O)N[C@H]2Cc3ccc(F)c(C(=O)O)c3OB2O)c2ccc(O)c(O)c2)C(=O)C1=O , MIC: > 64 µg/mL

Recorded result, O=C(O)c1cccc2c1OB(O)[C@@H](NC(=O)C(NC(=O)N1CCN(C3CNC3)C(=O)C1=O)c1c(F)cc(O)cc1F)C2 (stereo partly shown) , MIC: 16 to 32 µg/mL

----------
system: P. aeruginosa ATCC 27853; assay: Broth microdilution MIC in iron-depleted CAMHB (IDM); type: cell-based; details: Pseudomonas aeruginosa, ATCC27853, read-out: Minimum Inhibitory Concentration, P. aeruginosa ATCC 27853
measured-metric: MIC

Short answer on P. aeruginosa ATCC 27853 for CCN1CCN(C(=O)N[C@@H](C(=O)N[C@H]2Cc3ccc(F)c(C(=O)O)c3OB2O)c2c(Cl)cc(O)c(O)c2F)C(=O)C1=O (single isomer, unassigned) , MIC: 2 to 4 µg/mL

Short answer on P. aeruginosa ATCC 27853 for Nc1nc(/C(=N/OC[C@H](NC(=O)c2ccc(O)c(O)c2Cl)C(=O)O)C(=O)N[C@H]2Cc3cccc(C(=O)O)c3OB2O)cs1 , MIC: 0.5 to 1 µg/mL

Short answer on P. aeruginosa ATCC 27853 for CCN1CCN(C(=O)NC(C(=O)N[C@H]2Cc3cccc(C(=O)O)c3OB2O)c2cccc(NC(=O)c3ccc(O)c(O)c3Cl)c2)C(=O)C1=O (stereo partly shown) , MIC: 8 to 16 µg/mL

Short answer on P. aeruginosa ATCC 27853 for CS(=O)(=O)N1CCN(C(=O)NC(C(=O)N[C@H]2Cc3ccc(F)c(C(=O)O)c3OB2O)c2c(Cl)cc(O)c(O)c2F)C1=O (stereo partly shown) , MIC: 2 to 4 µg/mL

Short answer on P. aeruginosa ATCC 27853 for NCCCN1CCN(C(=O)N[C@@H](C(=O)N[C@H]2Cc3cc(Cl)c(F)c(C(=O)O)c3OB2O)c2c(F)cc(O)c(O)c2Cl)C(=O)C1=O , MIC: 2 to 4 µg/mL

Short answer on P. aeruginosa ATCC 27853 for NCCCN1CCN(C(=O)N[C@@H](C(=O)N[C@H]2Cc3ccc(F)c(C(=O)O)c3OB2O)c2c(F)c(F)c(O)c(O)c2Cl)C(=O)C1=O , MIC: 0.5 to 1 µg/mL

Short answer on P. aeruginosa ATCC 27853 for CCN1CCN(C(=O)NC(C(=O)N[C@H]2Cc3cccc(C(=O)O)c3OB2O)c2ccc(O)c(NC(=O)c3ccc(O)c(O)c3Cl)c2)C(=O)C1=O (stereo partly shown) , MIC: 8 to 16 µg/mL

Short answer on P. aeruginosa ATCC 27853 for O=C(NC(C(=O)N[C@H]1Cc2ccc(F)c(C(=O)O)c2OB1O)c1ncc(O)cc1F)c1c(F)cc(O)c(O)c1Cl (stereo partly shown) , MIC: 0.5 to 1 µg/mL

Short answer on P. aeruginosa ATCC 27853 for CCN1CCN(C(=O)N[C@H](C(=O)N[C@H]2Cc3ccc(F)c(C(=O)O)c3OB2O)c2c(F)cc(O)c(O)c2Cl)C(=O)C1=O (single isomer, unassigned) , MIC: > 128 µg/mL

Short answer on P. aeruginosa ATCC 27853 for CCN1CCN(C(=O)NC(C(=O)N[C@H]2Cc3ccc(F)c(C(=O)O)c3OB2O)c2c(F)cc(O)c(O)c2F)C(=O)C1=O (stereo partly shown) , MIC: 0.5 to 1 µg/mL

These entries and their values trace back to patent US20230114728A1.
